- Tested on: HCT-116 colon
- Experiment Notes: NCI-60 one-dose screen, 48 h (100 = growth as untreated, 0 = no growth, -100 = all killed)
- Experimental Conditions: 10 µM unless noted
The panel holds about 83,000 compounds, 20% with a hit somewhere; the sample as a whole holds those more often.
Threshold 10%: growth strictly smaller gives MET, otherwise NOT MET.

*Q* Would you kindly verify if growth of CCCCOc1ccc(NC(=O)c2sc3nc(C)ccc3c2N)cc1 is strictly less than 10%?
*A* MET

*Q* Would you kindly verify if growth of COc1cc(NC(=O)c2cccc(C3CCc4c(cc(OC)c(OC)c4OC)O3)c2)cc(OC)c1OC (configuration not stated) is strictly less than 10%?
*A* MET

*Q* Would you kindly verify if growth of C#CCOc1ccc(/C=N/Nc2nc(-c3ccc(F)cc3)cs2)cc1OC is strictly less than 10%?
*A* NOT MET

*Q* Would you kindly verify if growth of N#Cc1c(-c2ccc(Cl)cc2)nc2n[nH]c(-c3ccc(Cl)cc3)c2c1-c1ccc(C(F)(F)F)cc1 is strictly less than 10%?
*A* MET

*Q* Would you kindly verify if growth of Cn1cc(-c2cc3nc(-c4cn(C)c5ncccc45)cc(N)n3n2)c2cc(Cl)ccc21 is strictly less than 10%?
*A* MET

*Q* Would you kindly verify if growth of COc1cccc(/C=C/c2nc3ccccc3c(=O)n2CC(=O)Nc2ccc(Cl)cc2)c1 is strictly less than 10%?
*A* NOT MET

*Q* Would you kindly verify if growth of COc1ccc(-c2nnc3ccc(N/N=C/c4ccc(O)cc4)nn23)cc1 is strictly less than 10%?
*A* NOT MET

*Q* Would you kindly verify if growth of O=C(N=Nc1c(O)[nH]c2ccc([N+](=O)[O-])cc12)c1ccc2nc(-c3ccccc3)[nH]c2c1 is strictly less than 10%?
*A* NOT MET

*Q* Would you kindly verify if growth of Clc1cccc(N/N=C/c2c[nH]c3ccc(Br)cc23)n1 is strictly less than 10%?
*A* MET

*Q* Would you kindly verify if growth of COc1c(F)ccc(C(=O)Nc2ccc3nc(NC(=O)C4CCCN(S(=O)(=O)c5cccc(C(F)(F)F)c5)C4)sc3c2)c1F (configuration not stated) is strictly less than 10%?
*A* NOT MET

*Q* Would you kindly verify if growth of COC1=C[C@]23CCC(=O)N2CCc2cc4c(cc2[C@@H]3[C@@H]1OC(=O)[C@H](C)O)OCO4 is strictly less than 10%?
*A* MET

*Q* Would you kindly verify if growth of CC1CN(c2oc(-c3ccc([N+](=O)[O-])cc3)nc2C#N)CC(C)O1 (configuration not stated) is strictly less than 10%?
*A* NOT MET

*Q* Would you kindly verify if growth of COc1ccc(C2(SCCNCc3cc(N(C)C)ccn3)c3ccccc3C=Cc3ccccc32)cc1 is strictly less than 10%?
*A* MET

*Q* Would you kindly verify if growth of Cn1cc(-c2cc(N)n3nc(-c4cn(C)c5ncccc45)cc3n2)c2cccnc21 is strictly less than 10%?
*A* NOT MET

*Q* Would you kindly verify if growth of O=C(c1ccc(OCCN2CCOCC2)cc1)C1[C@H](c2ccc(Cl)cc2)[C@@H](c2ccccc2)NC12C(=O)Nc1ccc(Cl)cc12 (some centres not stated) is strictly less than 10%?
*A* NOT MET

*Q* Would you kindly verify if growth of COc1cc2c(c(OC)c1OC)C(=O)CC(c1cccc(NC(=O)c3cc(NC(=O)[C@H](C)N)ccc3Cl)c1)O2 (some centres not stated) is strictly less than 10%?
*A* NOT MET

*Q* Would you kindly verify if growth of O=C(/C=C/Nc1ccc2oc(=O)ccc2c1)c1cc2cc(Br)ccc2oc1=O is strictly less than 10%?
*A* NOT MET

*Q* Would you kindly verify if growth of C#CCOc1cc(N(CC)CC)ccc1C(C(=O)NC(C)(C)C)N(C(=O)C1CCc2cc(F)ccc2O1)c1ccccc1F (configuration not stated) is strictly less than 10%?
*A* NOT MET

*Q* Would you kindly verify if growth of COc1ccc(N2N=C(c3ccc4c(c3)OCO4)CC2c2cccc(NC(=O)CCNS(=O)(=O)c3ccc(Cl)cc3)c2)cc1 (configuration not stated) is strictly less than 10%?
*A* NOT MET

*Q* Would you kindly verify if growth of CN(C)c1nc(NCCNS(=O)(=O)c2ccc(C3=Nc4c(N)nc(N)nc4NC(c4ccc(Cl)cc4)C3)cc2)nc(Nc2ccc(F)cc2)n1 (configuration not stated) is strictly less than 10%?
*A* NOT MET

*Q* Would you kindly verify if growth of COc1ccc(-c2nc(SC(C)C)nc(NCCc3c[nH]c4ccccc34)c2C#N)cc1 is strictly less than 10%?
*A* MET

*Q* Would you kindly verify if growth of CC12CC[C@@H]3[C@]4(C)COC(c5cn[nH]c5-c5ccc(Br)cc5)O[C@@H]4CC[C@@]3(C)[C@@H]1CC(C1=CCOC1=O)O2 (some centres not stated) is strictly less than 10%?
*A* NOT MET

*Q* Would you kindly verify if growth of CC1(C)CC[C@]2(C(=O)O)CC[C@]3(C)C(=CCC4[C@@]5(C)C[C@@H](O)[C@@H]6OC(c7cccc(Br)c7)OC[C@@]6(C)C5CC[C@]43C)C2C1 (some centres not stated) is strictly less than 10%?
*A* NOT MET

*Q* Would you kindly verify if growth of O=C(N=Nc1c(O)[nH]c2ccc(Cl)cc12)c1ccc2nc(-c3ccccc3)[nH]c2c1 is strictly less than 10%?
*A* NOT MET

*Q* Would you kindly verify if growth of Nc1n[nH]c2cccc(C#Cc3cccc(NC(=O)c4cccc(Cl)c4)c3)c12 is strictly less than 10%?
*A* NOT MET

*Q* Would you kindly verify if growth of Cc1ccc(-c2nc(C#N)c(S(=O)(=O)N3CCN(S(=O)(=O)c4ccc(Cl)cc4)CC3)o2)cc1 is strictly less than 10%?
*A* NOT MET

*Q* Would you kindly verify if growth of Cc1ccc(C(=O)CSc2nc3ccc(F)cc3c(=O)n2-c2ccc(Cl)cc2)cc1 is strictly less than 10%?
*A* NOT MET
